# system_name: KDR (h) (Homo sapiens, UniProt P35968)
# Sequence (P35968 20-1356): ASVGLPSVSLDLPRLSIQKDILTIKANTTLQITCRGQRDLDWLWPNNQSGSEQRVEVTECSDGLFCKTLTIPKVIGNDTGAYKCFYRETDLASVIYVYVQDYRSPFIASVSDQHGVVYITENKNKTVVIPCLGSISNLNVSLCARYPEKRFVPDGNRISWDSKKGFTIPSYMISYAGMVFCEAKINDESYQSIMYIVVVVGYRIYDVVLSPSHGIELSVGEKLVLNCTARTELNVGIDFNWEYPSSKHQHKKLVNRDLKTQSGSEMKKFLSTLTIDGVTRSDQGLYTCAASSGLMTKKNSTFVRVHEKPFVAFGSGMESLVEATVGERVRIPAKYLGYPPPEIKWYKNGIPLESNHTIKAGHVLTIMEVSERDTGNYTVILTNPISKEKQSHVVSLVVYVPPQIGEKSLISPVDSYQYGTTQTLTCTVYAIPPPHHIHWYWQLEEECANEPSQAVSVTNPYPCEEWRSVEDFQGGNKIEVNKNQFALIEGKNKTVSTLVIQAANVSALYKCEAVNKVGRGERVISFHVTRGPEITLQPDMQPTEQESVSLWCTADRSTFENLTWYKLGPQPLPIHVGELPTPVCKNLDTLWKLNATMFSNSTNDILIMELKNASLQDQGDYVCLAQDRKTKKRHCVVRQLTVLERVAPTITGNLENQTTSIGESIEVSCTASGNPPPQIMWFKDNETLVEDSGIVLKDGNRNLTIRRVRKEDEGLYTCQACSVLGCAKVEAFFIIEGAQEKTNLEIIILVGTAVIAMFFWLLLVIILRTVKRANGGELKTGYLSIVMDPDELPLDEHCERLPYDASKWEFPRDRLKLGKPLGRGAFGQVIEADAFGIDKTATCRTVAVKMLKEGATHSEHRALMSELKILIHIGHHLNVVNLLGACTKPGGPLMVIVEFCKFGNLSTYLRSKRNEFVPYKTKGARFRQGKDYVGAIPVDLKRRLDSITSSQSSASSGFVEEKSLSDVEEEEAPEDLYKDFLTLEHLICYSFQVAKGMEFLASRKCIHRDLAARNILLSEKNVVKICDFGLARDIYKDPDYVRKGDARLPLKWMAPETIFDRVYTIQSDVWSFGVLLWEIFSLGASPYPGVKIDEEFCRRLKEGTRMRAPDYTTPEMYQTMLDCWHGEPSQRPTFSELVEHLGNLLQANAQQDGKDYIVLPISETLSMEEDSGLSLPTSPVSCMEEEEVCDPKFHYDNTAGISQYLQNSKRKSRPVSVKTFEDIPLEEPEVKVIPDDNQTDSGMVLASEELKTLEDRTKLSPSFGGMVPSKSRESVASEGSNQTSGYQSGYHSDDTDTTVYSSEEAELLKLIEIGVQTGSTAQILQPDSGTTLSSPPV
# run_description: KDR (VEGFR2) (enzymatic assay), TR-FRET
# Assay type: biochemical
# reported_conditions: read-out: VEGFR 2 (KDR) pIC50 (converted)
The following compounds are listed with their measured log10(IC50) values.
property_measured: log10(IC50) (log10 of the value in nM)

| compound | log10(IC50) |
| --- | --- |
| COc1cc(OC)cc(N(CCCN2CCCC2=O)c2ccc3ncc(-c4cnn(C)c4)nc3n2)c1 | 1.55 |
| COc1cc(OC)c(F)c(N(CCN2CCOCC2)c2ccc3ncc(-c4cnn(C)c4)nc3n2)c1 | 1.19 |
| COc1cc(OC)c(F)c(N(CCNC(C)=O)c2ccc3ncc(-c4cnn(C)c4)nc3n2)c1 | 1.45 |
| COc1cc(/N=c2\ccc3ncc(-c4cnn(C)c4)nc3n2CC2CC(O)C(=O)N2)c(F)c(OC)c1 (stereo not drawn) | 0.81 |
| COc1cc(OC)c(F)c(N(Cc2ncc[nH]2)c2ccc3ncc(-c4cn[nH]c4)nc3n2)c1 | 0.90 |
| COc1cc(OC)c(F)c(N(CC(=O)NC(C)C)c2ccc3ncc(-c4cnn(C)c4)nc3n2)c1 | 2.35 |
| COc1cc(OC)c(F)c(N(Cc2nncn2C)c2ccc3ncc(-c4cnn(C)c4)nc3n2)c1 | 1.63 |
| COc1cc(OC)c(F)c(N(Cc2ccn(C)n2)c2ccc3ncc(-c4cnn(C)c4)nc3n2)c1 | 0.90 |
| COc1cc(OC)c(F)c(N(CCCN2CCCC2=O)c2ccc3ncc(-c4cnn(C)c4)nc3n2)c1 | 1.28 |
| COc1cc(OC)c(F)c(N(Cc2ncc[nH]2)c2ccc3ncc(-c4cnn(CC(C)(C)O)c4)nc3n2)c1 | 1.19 |
| COc1cc(OC)c(F)c(N(Cc2c[nH]nn2)c2ccc3ncc(-c4cnn(C)c4)nc3n2)c1 | 1.09 |
| COc1cc(/N=c2\ccc3ncc(-c4cnn(C)c4)nc3n2CCN2CCOCC2)c(F)c(OC)c1 | 0.70 |
| COc1cc(OC)cc(N(CC2COC2)c2ccc3ncc(-c4cnn(C)c4)nc3n2)c1 | 1.87 |
| COc1cc(OC)c(F)c(N(CCN)c2ccc3ncc(-c4cnn(C)c4)nc3n2)c1 | 1.20 |
| COc1cc(OC)c(F)c(N(Cc2cnn(C)c2)c2ccc3ncc(-c4cnn(C)c4)nc3n2)c1 | 1.06 |
| COc1cc(OC)cc(N(c2ccc3ncc(-c4cnn(C)c4)nc3n2)C(C)c2ncc[nH]2)c1 (stereo not drawn) | 1.50 |
| CNCCn1/c(=N/c2c(F)c(OC)cc(OC)c2F)ccc2ncc(-c3cn[nH]c3)nc21 | 1.43 |
| COc1cc(OC)c(F)c(N(CC(N)=O)c2ccc3ncc(-c4cnn(C)c4)nc3n2)c1 | 2.17 |
| COc1cc(OC)c(F)c(N(CC2CCOC2)c2ccc3ncc(-c4cnn(C)c4)nc3n2)c1 (single isomer, unassigned) [Compound 170] | 1.13 |
| COc1cc(OC)c(F)c(N(CCS(C)(=O)=O)c2ccc3ncc(-c4cnn(C)c4)nc3n2)c1 | 1.42 |
| COc1cc(OC)cc(N(Cc2ncc[nH]2)c2ccc3ncc(-c4cccnc4)nc3n2)c1 | 1.81 |
| COc1cc(OC)c(F)c(N(Cc2ncc[nH]2)c2ccc3ncc(-c4cnn(CCCN)c4)nc3n2)c1 | 0.97 |
| COc1cc(OC)c(F)c(N(Cc2ncc[nH]2)c2ccc3ncc(N4CCOCC4)nc3n2)c1 | 1.95 |
| COc1cc(/N=c2\ccc3ncc(-c4cnn(C)c4)nc3n2Cc2cn[nH]c2)c(F)c(OC)c1 | 0.39 |
| COc1cc(/N=c2\ccc3ncc(-c4cnn(C)c4)nc3n2CC2CCC(=O)N2C)c(F)c(OC)c1 (stereo not drawn) [Compound 158] | 0.82 |
| COc1cc(/N=c2\ccc3ncc(-c4cnn(C)c4)nc3n2CCN2CCCC2=O)c(F)c(OC)c1 | 1.47 |
| COc1cc(OC)cc(N(CC2CCCCO2)c2ccc3ncc(-c4cnn(C)c4)nc3n2)c1 (stereo not drawn) | 1.77 |
| COc1cc(OC)c(F)c(N(C)c2ccc3ncc(-c4cnn(C)c4)nc3n2)c1F (single isomer, unassigned) | 1.15 |
| CCn1/c(=N/c2c(F)c(OC)cc(OC)c2F)ccc2ncc(-c3cnn(C)c3)nc21 | 0.50 |
| COc1cc(/N=c2\ccc3ncc(-c4cnn(C)c4)nc3n2Cc2c(C)noc2C)c(F)c(OC)c1 | 1.09 |

These measurements were taken from patent US9309242B2.
